Measured IC50, listed per entry.
Target: human SCD1 (Homo sapiens)
Construct: expressed in transfected cells; host or cells: yeast strain with OLE1 deleted, plasmid-borne human SCD1 (selected in SD-Ura)
Sequence (O00767 1-359): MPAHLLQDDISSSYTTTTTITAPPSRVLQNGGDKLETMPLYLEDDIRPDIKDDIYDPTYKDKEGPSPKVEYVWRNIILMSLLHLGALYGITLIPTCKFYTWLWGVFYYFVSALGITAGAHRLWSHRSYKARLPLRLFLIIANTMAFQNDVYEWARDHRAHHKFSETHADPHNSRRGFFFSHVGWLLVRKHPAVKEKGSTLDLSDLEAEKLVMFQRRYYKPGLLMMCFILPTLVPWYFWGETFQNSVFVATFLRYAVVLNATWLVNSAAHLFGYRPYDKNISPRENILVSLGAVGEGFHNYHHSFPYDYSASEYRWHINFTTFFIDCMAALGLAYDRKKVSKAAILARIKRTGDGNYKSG
Assay: Growth inhibition of yeast strain expressing human SCD1 as sole desaturase (OLE1 deleted), OD600 readout
Type: cell-based
Conditions: yeast strain expressing human SCD1 as sole desaturase; growth (OD600) after 40 h at 30° C.; read-out: SCD1 IC50

{"molecule": "O=C(Nc1ccc(CO)nc1)c1ccc(Cc2cccc(F)c2)cn1", "unit spec": "µM", "sign qualifier": "=", "IC50": 0.01}
{"molecule": "CCn1cc(C(=O)Nc2ccc(Cc3cccc(Cl)c3)cn2)ccc1=O", "unit spec": "µM", "sign qualifier": "=", "IC50": 6.66}
{"molecule": "Cn1nc(C(=O)Nc2ccc(C3(c4ccc(F)c(F)c4)CC3)cn2)ccc1=O", "unit spec": "µM", "sign qualifier": ">", "IC50": 45}
{"molecule": "CN1N=C(C(=O)Nc2ccc(COC3(C)CC3)cn2)CCC1=O", "unit spec": "µM", "sign qualifier": ">", "IC50": 45}
{"molecule": "O=C(Nc1ccc(Cc2cccc(F)c2)cn1)c1cncc(CO)c1", "unit spec": "µM", "sign qualifier": "=", "IC50": 0.12}
{"molecule": "N#Cc1ccc(C(=O)Nc2ccc(Cc3cc(F)cc(C#N)c3)cn2)nc1", "unit spec": "µM", "sign qualifier": "=", "IC50": 1}
{"molecule": "Cc1cnc(C(=O)Nc2ccc(Cc3cccc(F)c3)cn2)cn1", "unit spec": "µM", "sign qualifier": "=", "IC50": 0.69}
{"molecule": "Cc1ccc(Cc2ccc(NC(=O)c3ccc(=O)n(C)c3)nc2)cn1", "unit spec": "µM", "sign qualifier": ">", "IC50": 45}
{"molecule": "CCn1nc(C(=O)Nc2ccc(Cc3cccc(F)c3)nn2)ccc1=O", "unit spec": "µM", "sign qualifier": ">", "IC50": 45}
{"molecule": "CO[C@@H]1CN[C@H](C(=O)Nc2ccc(Cc3cccc(F)c3)cn2)C1", "unit spec": "µM", "sign qualifier": ">", "IC50": 45}
{"molecule": "CN1N=C(C(=O)Nc2nc(Cc3cccc(F)c3)cs2)CCC1=O", "unit spec": "µM", "sign qualifier": ">", "IC50": 45}
{"molecule": "Cn1cc(C(=O)Nc2ccc(OCc3cccc(Cl)c3)cn2)ccc1=O", "unit spec": "µM", "sign qualifier": ">", "IC50": 45}
{"molecule": "CN1N=C(C(=O)Nc2ccc(Cc3cccc(CO)c3)cn2)CCC1=O", "unit spec": "µM", "sign qualifier": "=", "IC50": 6.24}
{"molecule": "Cn1nc(C(=O)Nc2ncc(Cc3cccc(F)c3)s2)ccc1=O", "unit spec": "µM", "sign qualifier": "=", "IC50": 0.02}
{"molecule": "CN1N=C(C(=O)Nc2ccc(Cc3ccc(F)cc3)cn2)CCC1=O", "unit spec": "µM", "sign qualifier": ">", "IC50": 45}
{"molecule": "COC(=O)c1ccnc(C(=O)Nc2ccc(Cc3cccc(F)c3)cn2)c1", "unit spec": "µM", "sign qualifier": "=", "IC50": 10}
{"molecule": "CN1N=C(NC(=O)c2ccc(Cc3cccc(C(F)F)c3)cn2)CCC1=O", "unit spec": "µM", "sign qualifier": ">", "IC50": 45}
{"molecule": "C=Cc1cnc(C(=O)Nc2ccc(Cc3ccc(F)c(F)c3)cn2)nc1", "unit spec": "µM", "sign qualifier": "=", "IC50": 3.9}
{"molecule": "CN1N=C(C(=O)Nc2ccc(Cc3cc(C(F)(F)F)ccn3)cn2)CCC1=O", "unit spec": "µM", "sign qualifier": "=", "IC50": 17.3}
{"molecule": "CN1N=C(C(=O)Oc2ccc(NCc3cccc(F)c3)nc2)CCC1=O", "unit spec": "µM", "sign qualifier": ">", "IC50": 45}
{"molecule": "Cn1nc(NC(=O)c2ccc(Cc3ccc(F)cc3)cn2)ccc1=O", "unit spec": "µM", "sign qualifier": "=", "IC50": 0.56}
{"molecule": "CN1N=C(C(=O)Nc2ccc(Cc3cccc(C(F)(F)F)c3)cn2)CCC1=O", "unit spec": "µM", "sign qualifier": "=", "IC50": 8.57}
{"molecule": "CC(C)n1cc(C(=O)Nc2ccc(Cc3cccc(Cl)c3)cn2)ccc1=O", "unit spec": "µM", "sign qualifier": ">", "IC50": 45}
{"molecule": "CN1CC=C(C(=O)Nc2ccc(Cc3cccc(F)c3)cn2)NC1=O", "unit spec": "µM", "sign qualifier": "=", "IC50": 3.5}
{"molecule": "CN1N=C(C(=O)Nc2ccc(Cc3cccc(F)c3)s2)CCC1=O", "unit spec": "µM", "sign qualifier": "=", "IC50": 3.14}
{"molecule": "Cc1ccc(Cc2ccc(NC(=O)C3=NN(C)C(=O)CC3)nc2)cn1", "unit spec": "µM", "sign qualifier": ">", "IC50": 45}
{"molecule": "CN1N=C(C(=O)Nc2ccc(Cc3ccc(F)c(Cl)c3)nn2)CCC1=O [Compound 192]", "unit spec": "µM", "sign qualifier": "=", "IC50": 11.9}
{"molecule": "Cn1ccc(C(=O)Nc2ccc(Cc3cccc(F)c3)cn2)nc1=O", "unit spec": "µM", "sign qualifier": "=", "IC50": 15.4}
{"molecule": "N#Cc1ccc(C(=O)Nc2ccc(Cc3cccc(Cl)c3)cn2)cn1", "unit spec": "µM", "sign qualifier": ">", "IC50": 45}
{"molecule": "CN1N=C(C(=O)Nc2ncc(Cc3cccnc3)s2)CCC1=O", "unit spec": "µM", "sign qualifier": ">", "IC50": 45}
{"molecule": "O=C(Nc1ccc(Cc2cccc(F)c2)cn1)c1ccc2nncn2c1", "unit spec": "µM", "sign qualifier": "=", "IC50": 1.34}
{"molecule": "Cn1cc(C(=O)Nc2ccc(OCc3cc(F)cc(C#N)c3)cn2)ccc1=O", "unit spec": "µM", "sign qualifier": ">", "IC50": 45}
{"molecule": "Cn1nc(C(=O)Nc2ccc(CC3CCCCC3)cn2)ccc1=O", "unit spec": "µM", "sign qualifier": "=", "IC50": 15.7}
{"molecule": "Cn1nc(C(=O)Nc2ccc(Cc3ccc(F)c(F)c3)cn2)ccc1=O", "unit spec": "µM", "sign qualifier": ">", "IC50": 45}
{"molecule": "CN1N=C(C(=O)Nc2ccc(Cc3ccccc3)nn2)CCC1=O", "unit spec": "µM", "sign qualifier": ">", "IC50": 45}
{"molecule": "CN1N=C(C(=O)Nc2ccc(Cc3cc(F)cc(C#N)c3)cn2)CCC1=O", "unit spec": "µM", "sign qualifier": ">", "IC50": 45}
{"molecule": "CCn1nc(C(=O)Nc2ccc(Cc3cccc(F)c3)cn2)ccc1=O", "unit spec": "µM", "sign qualifier": "=", "IC50": 1.65}

Source: patent US20230078764A1
